# EXPERIMENTAL TARGET: CYP2C19 (Homo sapiens, UniProt P33261)
# Sequence (P33261 whole entry): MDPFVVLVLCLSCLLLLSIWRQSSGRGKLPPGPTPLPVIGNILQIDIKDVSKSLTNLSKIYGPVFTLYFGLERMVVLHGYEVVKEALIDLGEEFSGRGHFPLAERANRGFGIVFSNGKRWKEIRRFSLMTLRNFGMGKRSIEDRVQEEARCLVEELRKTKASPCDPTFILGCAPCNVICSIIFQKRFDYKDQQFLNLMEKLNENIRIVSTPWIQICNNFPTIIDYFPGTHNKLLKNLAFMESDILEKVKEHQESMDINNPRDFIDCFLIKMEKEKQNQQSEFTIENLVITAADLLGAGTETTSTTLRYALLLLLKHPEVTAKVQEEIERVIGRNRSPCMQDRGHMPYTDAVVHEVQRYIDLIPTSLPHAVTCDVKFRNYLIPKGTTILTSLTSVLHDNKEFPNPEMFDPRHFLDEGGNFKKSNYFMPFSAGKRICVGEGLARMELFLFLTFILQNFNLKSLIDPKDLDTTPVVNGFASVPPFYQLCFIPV
# PROCEDURE DETAILS: Inhibition of recombinant human CYP2C19 assessed as remaining activity at 10 uM preincubated for 5 mins followed by substrate and NADP addition measured after 20 mins by fluorescence assay relative to control
# Assay type: ADME
# EXPERIMENTAL PARAMETERS: read-out: Activity
RECORDED METRIC: activity at 20 min, 10 µM

[[record]]
record_smiles = "N#Cc1c(NCc2ccc(F)cc2)sc2c1CCN(C(=O)c1ccccc1)C2"
recorded_metric = "activity at 20 min, 10 µM"
result = "3.81%"

[[record]]
record_smiles = "N#Cc1c(NCc2ccccc2)sc2c1CCN(C(=O)c1ccc(F)cc1)C2"
recorded_metric = "activity at 20 min, 10 µM"
result = "9.94%"

[[record]]
record_smiles = "Cc1cc(C(=O)N2CCc3c(sc(NCc4ccccc4)c3C#N)C2)[nH]n1"
recorded_metric = "activity at 20 min, 10 µM"
result = "14.2%"

[[record]]
record_smiles = "Cc1cccc(C(=O)N2CCc3c(sc(NCc4ccccc4)c3C#N)C2)c1"
recorded_metric = "activity at 20 min, 10 µM"
result = "4.57%"

[[record]]
record_smiles = "COc1cccc(CNc2sc3c(c2C#N)CCN(C(=O)c2ccc(F)cc2)C3)c1"
recorded_metric = "activity at 20 min, 10 µM"
result = "7.99%"


====

# PROCEDURE DETAILS: Ratio of drug level in brain to plasma in Sprague-Dawley rat at 10 mg/kg, iv measured at 2 hrs by LC-MS/MS analysis
# Format: ADME, organism-based
# Parameters: dose 10 mg/kg, route intravenous
# EXPERIMENTAL PARAMETERS: read-out: BPR
RECORDED METRIC: Kp at 2 h

[[record]]
record_smiles = "Cc1cc(C(=O)N2CCc3c(sc(NCc4ccccc4)c3C#N)C2)[nH]n1"
recorded_metric = "Kp at 2 h"
numeric_value = 0.14


====

# PROCEDURE DETAILS: Cmax in Sprague-Dawley rat at 10 mg/kg, po by LC-MS/MS analysis
# Format: ADME, organism-based
# Parameters: dose 10 mg/kg, route oral
# EXPERIMENTAL PARAMETERS: in vivo
RECORDED METRIC: Cmax (ng/mL)

[[record]]
record_smiles = "Cc1cc(C(=O)N2CCc3c(sc(NCc4ccccc4)c3C#N)C2)[nH]n1"
scale_unit = "ng/mL"
numeric_value = 1410


====

# EXPERIMENTAL TARGET: CYP3A4 (Homo sapiens)
# Sequence (P08684 whole entry): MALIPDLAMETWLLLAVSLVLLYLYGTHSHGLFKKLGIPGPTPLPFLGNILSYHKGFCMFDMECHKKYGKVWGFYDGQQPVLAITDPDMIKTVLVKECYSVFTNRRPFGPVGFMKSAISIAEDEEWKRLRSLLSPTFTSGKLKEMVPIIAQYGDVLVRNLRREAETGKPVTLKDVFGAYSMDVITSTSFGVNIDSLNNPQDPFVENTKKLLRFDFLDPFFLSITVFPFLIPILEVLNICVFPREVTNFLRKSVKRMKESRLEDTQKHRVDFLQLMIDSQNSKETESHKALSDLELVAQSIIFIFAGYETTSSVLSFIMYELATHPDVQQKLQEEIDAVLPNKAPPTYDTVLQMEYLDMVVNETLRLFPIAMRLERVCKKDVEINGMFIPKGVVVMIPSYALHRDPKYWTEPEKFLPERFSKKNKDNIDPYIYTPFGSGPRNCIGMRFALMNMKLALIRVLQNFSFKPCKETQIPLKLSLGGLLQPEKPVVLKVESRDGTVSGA
# PROCEDURE DETAILS: Inhibition of recombinant human CYP3A4 assessed as remaining activity at 10 uM preincubated for 5 mins followed by substrate and NADP addition measured after 20 mins by fluorescence assay relative to control
# Type: ADME
# EXPERIMENTAL PARAMETERS: read-out: Activity
RECORDED METRIC: activity at 20 min, 10 µM (%)

[[record]]
record_smiles = "N#Cc1c(NCc2ccccc2)sc2c1CCN(C(=O)c1ccc(F)cc1)C2"
experimental_target = "CYP3A4 (Homo sapiens)"
numeric_value = 20

[[record]]
record_smiles = "Cc1cc(C(=O)N2CCc3c(sc(NCc4ccccc4)c3C#N)C2)[nH]n1"
experimental_target = "CYP3A4 (Homo sapiens)"
numeric_value = 20.5

[[record]]
record_smiles = "COc1cccc(CNc2sc3c(c2C#N)CCN(C(=O)c2ccc(F)cc2)C3)c1"
experimental_target = "CYP3A4 (Homo sapiens)"
numeric_value = 12.5

[[record]]
record_smiles = "N#Cc1c(NCc2ccc(F)cc2)sc2c1CCN(C(=O)c1ccccc1)C2"
experimental_target = "CYP3A4 (Homo sapiens)"
numeric_value = 24.2

[[record]]
record_smiles = "Cc1cccc(C(=O)N2CCc3c(sc(NCc4ccccc4)c3C#N)C2)c1"
experimental_target = "CYP3A4 (Homo sapiens)"
numeric_value = 9.36


====

# PROCEDURE DETAILS: Mean residence time in Sprague-Dawley rat at 10 mg/kg, iv by LC-MS/MS analysis
# Assay type: ADME, organism-based
# Parameters: dose 10 mg/kg, route intravenous
# EXPERIMENTAL PARAMETERS: in vivo
RECORDED METRIC: MRT

[[record]]
record_smiles = "Cc1cc(C(=O)N2CCc3c(sc(NCc4ccccc4)c3C#N)C2)[nH]n1"
recorded_metric = "MRT"
result = "1.31 h"


====

# EXPERIMENTAL TARGET: Metabotropic glutamate receptor 1 (Homo sapiens)
# Sequence (Q13255 19-1194 limits assumed): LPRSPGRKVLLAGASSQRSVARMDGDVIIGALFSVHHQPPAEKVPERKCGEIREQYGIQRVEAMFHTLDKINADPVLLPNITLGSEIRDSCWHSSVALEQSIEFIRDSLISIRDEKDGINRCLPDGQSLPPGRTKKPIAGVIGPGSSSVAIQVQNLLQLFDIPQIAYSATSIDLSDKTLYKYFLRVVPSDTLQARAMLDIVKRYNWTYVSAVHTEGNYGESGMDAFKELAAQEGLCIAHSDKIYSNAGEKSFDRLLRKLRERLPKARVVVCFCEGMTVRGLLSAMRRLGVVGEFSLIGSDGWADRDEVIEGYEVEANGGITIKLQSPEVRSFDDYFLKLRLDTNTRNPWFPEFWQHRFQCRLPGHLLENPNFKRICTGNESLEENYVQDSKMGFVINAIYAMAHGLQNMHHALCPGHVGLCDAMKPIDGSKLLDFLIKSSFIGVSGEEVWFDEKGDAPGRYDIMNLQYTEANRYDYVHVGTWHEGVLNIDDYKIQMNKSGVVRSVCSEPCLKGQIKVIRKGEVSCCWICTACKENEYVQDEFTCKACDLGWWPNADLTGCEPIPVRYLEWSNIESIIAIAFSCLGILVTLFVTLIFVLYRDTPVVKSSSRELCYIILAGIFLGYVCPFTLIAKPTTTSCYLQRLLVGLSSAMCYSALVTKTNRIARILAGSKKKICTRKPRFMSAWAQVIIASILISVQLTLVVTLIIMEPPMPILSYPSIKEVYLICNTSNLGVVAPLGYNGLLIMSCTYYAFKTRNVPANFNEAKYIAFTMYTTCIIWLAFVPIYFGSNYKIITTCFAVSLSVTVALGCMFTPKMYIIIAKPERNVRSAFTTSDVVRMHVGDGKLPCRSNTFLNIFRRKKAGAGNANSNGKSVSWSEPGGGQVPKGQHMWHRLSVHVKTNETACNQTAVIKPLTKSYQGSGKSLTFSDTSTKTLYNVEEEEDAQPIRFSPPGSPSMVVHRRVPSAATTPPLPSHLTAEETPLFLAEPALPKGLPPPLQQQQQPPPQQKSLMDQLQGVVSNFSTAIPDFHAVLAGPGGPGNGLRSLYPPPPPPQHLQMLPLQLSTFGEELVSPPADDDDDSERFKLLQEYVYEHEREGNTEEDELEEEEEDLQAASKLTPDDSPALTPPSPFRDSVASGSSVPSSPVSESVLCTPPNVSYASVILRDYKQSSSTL
# PROCEDURE DETAILS: Antagonist activity at human mGluR1 expressed in human Chem-3 cells assessed as inhibition of L-glutamate-induced calcium release at 10 uM by calcium-5 reagent-based fluorescence assay relative to control
# Format: functional, cell-based
RECORDED METRIC: inhibition (%)

[[record]]
record_smiles = "N#Cc1c(NCc2ccccc2)sc2c1CCN(C(=O)c1ccn[nH]1)C2"
scale_unit = "%"
numeric_value = 94.9

[[record]]
record_smiles = "N#Cc1c(NCc2ccc(F)cc2)sc2c1CCN(C(=O)c1ccc(F)cc1)C2"
scale_unit = "%"
numeric_value = 73.1

[[record]]
record_smiles = "N#Cc1c(NCc2ccc(F)cc2)sc2c1CCN(C(=O)c1ccccc1)C2"
scale_unit = "%"
numeric_value = 77.8

[[record]]
record_smiles = "N#Cc1c(NCc2cccc(F)c2)sc2c1CCN(C(=O)c1ccc(Cl)cc1)C2"
scale_unit = "%"
numeric_value = 41.2

[[record]]
record_smiles = "N#Cc1c(NCc2ccccc2)sc2c1CCN(C(=O)c1cnccc1F)C2"
scale_unit = "%"
numeric_value = 90.1

[[record]]
record_smiles = "CC(C)c1cc(C(=O)N2CCc3c(sc(NCc4ccc(F)cc4)c3C#N)C2)[nH]n1"
scale_unit = "%"
numeric_value = 40.7

[[record]]
record_smiles = "COc1ccc(C(=O)Nc2sc3c(c2C#N)CCN(C(=O)c2cc(C(C)C)n[nH]2)C3)cc1"
scale_unit = "%"
numeric_value = -6.42

[[record]]
record_smiles = "N#Cc1c(NCc2ccccc2)sc2c1CCN(C(=O)c1ccc(F)cc1)C2"
scale_unit = "%"
numeric_value = 91.5

[[record]]
record_smiles = "Cc1ccc(C(=O)N2CCc3c(sc(NCc4cccc(F)c4)c3C#N)C2)cc1"
scale_unit = "%"
numeric_value = 43.9

[[record]]
record_smiles = "N#Cc1c(NCc2ccc(F)cc2)sc2c1CCN(C(=O)c1ccn[nH]1)C2"
scale_unit = "%"
numeric_value = 91.4


====

# PROCEDURE DETAILS: Total clearance in Sprague-Dawley rat at 10 mg/kg, iv by LC-MS/MS analysis
# Format: ADME, organism-based
# Design: dose 10 mg/kg, route intravenous
# EXPERIMENTAL PARAMETERS: in vivo
RECORDED METRIC: clearance (mL/min/kg)

[[record]]
record_smiles = "Cc1cc(C(=O)N2CCc3c(sc(NCc4ccccc4)c3C#N)C2)[nH]n1"
recorded_metric = "clearance"
scale_unit = "mL/min/kg"
numeric_value = 20.1

